# TARGET SYSTEM: PRMT5/MEP50 complex (Homo sapiens, UniProt O14744)
# Sequence (O14744 whole entry, the tested form may be a part): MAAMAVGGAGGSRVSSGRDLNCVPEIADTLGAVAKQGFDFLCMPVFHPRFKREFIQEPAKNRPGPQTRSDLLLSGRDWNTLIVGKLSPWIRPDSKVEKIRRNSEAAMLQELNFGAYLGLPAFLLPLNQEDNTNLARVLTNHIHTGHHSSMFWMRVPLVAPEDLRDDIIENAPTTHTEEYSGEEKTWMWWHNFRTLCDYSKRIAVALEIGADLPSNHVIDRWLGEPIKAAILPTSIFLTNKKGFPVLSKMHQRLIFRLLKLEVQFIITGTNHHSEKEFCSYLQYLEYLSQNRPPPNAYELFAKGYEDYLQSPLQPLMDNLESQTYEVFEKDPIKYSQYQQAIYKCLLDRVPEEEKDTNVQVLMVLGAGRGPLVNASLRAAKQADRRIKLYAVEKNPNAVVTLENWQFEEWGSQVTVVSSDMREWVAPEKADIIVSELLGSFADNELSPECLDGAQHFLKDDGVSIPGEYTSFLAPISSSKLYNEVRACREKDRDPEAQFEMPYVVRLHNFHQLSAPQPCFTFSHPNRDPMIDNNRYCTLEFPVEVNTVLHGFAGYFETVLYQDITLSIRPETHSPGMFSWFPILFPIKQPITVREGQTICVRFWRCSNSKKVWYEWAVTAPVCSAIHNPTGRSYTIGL
# Sequence (Q9BQA1 whole entry, further chain, the tested form may be a part): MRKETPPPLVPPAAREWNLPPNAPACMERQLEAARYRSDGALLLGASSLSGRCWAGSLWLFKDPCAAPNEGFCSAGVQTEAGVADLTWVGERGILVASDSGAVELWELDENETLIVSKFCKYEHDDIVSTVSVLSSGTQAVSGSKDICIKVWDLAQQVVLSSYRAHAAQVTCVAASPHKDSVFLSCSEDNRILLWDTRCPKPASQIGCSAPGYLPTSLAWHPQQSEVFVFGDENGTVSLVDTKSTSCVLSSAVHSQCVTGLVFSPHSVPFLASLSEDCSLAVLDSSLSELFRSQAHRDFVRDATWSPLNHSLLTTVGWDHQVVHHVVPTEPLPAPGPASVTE
# ASSAY PROCEDURE: Inhibition of recombinant human fetal brain FLAG-tagged PRMT5/full length human testis 6His-tagged MEP50 expressed in baculovirus infected insect Sf9 cells using human histone H4 (1 to 15 residues) as substrate preincubated for 30 mins followed by [3H]-SAM addition
PARAMETER: IC50

[[record]]
compound = "CN(C)c1ccc(OCC(=O)NCC(O)CN2CCc3ccccc3C2)cc1 (stereo unspecified)"
target_system = "PRMT5/MEP50 complex (Homo sapiens, UniProt O14744)"
parameter = "IC50"
reported_result = "101 to 1000 nM"


Please supply IC50 for each of the following items, keeping them in order.
1. Cc1ccncc1-c1cccc(OCC(O)CN2CCc3ccccc3C2)c1 (stereo unspecified)
2. CN(C)c1ccccc1N1CCN(C[C@H](O)CN2CCc3ccccc3C2)C(=O)C1
3. OC(COc1cccc(-c2ccncc2F)c1)CN1CCc2ccccc2C1 (stereo unspecified)
4. COc1ccc(Cn2nccc2-c2ccc(OC[C@@H](O)CN3CCc4ccccc4C3)cc2)cc1
5. Cn1cnc2c1CN(c1cccc(OCC(O)CN3CCc4ccccc4C3)c1)CC2 (stereo unspecified)
6. Cn1cnc2ccc(-c3cncc(NCC(O)CN4CCc5ccccc5C4)n3)cc21 (stereo unspecified)
7. CN(C)CCOc1ccccc1OCC(=O)NC[C@@H](O)CN1CCc2ccccc2C1
8. Cc1cn(C)c2cccc(OCC(=O)NCC(O)CN3CCc4ccccc4C3)c12 (stereo unspecified)

Given back:
1: 101 to 10000 nM; 2: 101 to 1000 nM; 3: 1000 to 10000 nM; 4: > 40000 nM; 5: 101 to 1000 nM; 6: 101 to 1000 nM; 7: 101 to 1000 nM; 8: < 100 nM

---

Give measured pIC50 for each item. Keep answers brief.
# TARGET SYSTEM: PRMT5/MEP50 complex (Homo sapiens, UniProt O14744)
# ASSAY PROCEDURE: Inhibition of recombinant human fetal brain FLAG-tagged PRMT5/full length human testis 6His-tagged MEP50 expressed in baculovirus infected insect Sf9 cells using human histone H4 (1 to 15 residues) as substrate preincubated for 30 mins followed by [3H]-SAM addition
pIC50: −log10 of the molar value.

# count of solved cases: 10
[[record]]
molecule = "OC(CNc1cc(-c2ccc3ncn(C4CCNCC4)c3c2)ccn1)CN1CCc2ccccc2C1 (configuration not stated)"
parameter = "pIC50"
reported_result = "> 7.00"

[[record]]
molecule = "Cc1nn(-c2ccccc2)c(C)c1COCC(O)CN1CCc2ccccc2C1 (configuration not stated)"
parameter = "pIC50"
reported_result = "5.00 to 6.00"

[[record]]
molecule = "OC(COc1cccc(CNc2cc[nH]n2)c1)CN1CCc2ccccc2C1 (configuration not stated)"
parameter = "pIC50"
reported_result = "6.00 to 7.00"

[[record]]
molecule = "OC(COc1cccc(N2CCc3[nH]nc(-c4ccccc4)c3C2)c1)CN1CCc2ccccc2C1 (configuration not stated)"
parameter = "pIC50"
reported_result = "5.00 to 6.00"

[[record]]
molecule = "Cn1cnc2ccc(-c3cccc(NCC(O)CN4CCc5ccccc5C4)n3)cc21 (configuration not stated)"
parameter = "pIC50"
reported_result = "6.00 to 7.00"

[[record]]
molecule = "O=C(COc1cccc2ccc(N3CCOCC3)nc12)NCC(O)CN1CCc2ccccc2C1 (configuration not stated)"
parameter = "pIC50"
reported_result = "> 7.00"

[[record]]
molecule = "CS(=O)(=O)N1CCc2c(cccc2OCC(=O)NCC(O)CN2CCc3ccccc3C2)C1 (configuration not stated)"
parameter = "pIC50"
reported_result = "> 7.00"

[[record]]
molecule = "O=C(Nc1cccc(OCC(O)CN2CCc3ccccc3C2)c1)c1ccnnc1 (configuration not stated)"
parameter = "pIC50"
reported_result = "5.00 to 6.00"

[[record]]
molecule = "COc1ccc(Cl)cc1-c1cccc(OCC(O)CN2CCc3ccccc3C2)c1 (configuration not stated)"
parameter = "pIC50"
reported_result = "6.00 to 7.00"

[[record]]
molecule = "O=C(Nc1cccc(OCC(O)CN2CCc3ccccc3C2)c1)c1cncnc1 (configuration not stated)"
parameter = "pIC50"
reported_result = "5.00 to 6.00"


Please give pIC50 for each item listed below.
1. OC(COc1cccc(-c2ccccc2F)c1)CN1CCc2ccccc2C1 (configuration not stated)
2. Cn1cnc2ccc(-c3cccc(OCC(O)CN4CCc5ccccc5C4(C)C)c3)cc21 (configuration not stated)

Given back:
1: 6.00 to 7.00; 2: 5.00 to 6.00
